This collection of values is drawn from the supplement of paper PMC3334620.

TEST SYSTEM: Pdr3 (UniProt P33200)
Sequence: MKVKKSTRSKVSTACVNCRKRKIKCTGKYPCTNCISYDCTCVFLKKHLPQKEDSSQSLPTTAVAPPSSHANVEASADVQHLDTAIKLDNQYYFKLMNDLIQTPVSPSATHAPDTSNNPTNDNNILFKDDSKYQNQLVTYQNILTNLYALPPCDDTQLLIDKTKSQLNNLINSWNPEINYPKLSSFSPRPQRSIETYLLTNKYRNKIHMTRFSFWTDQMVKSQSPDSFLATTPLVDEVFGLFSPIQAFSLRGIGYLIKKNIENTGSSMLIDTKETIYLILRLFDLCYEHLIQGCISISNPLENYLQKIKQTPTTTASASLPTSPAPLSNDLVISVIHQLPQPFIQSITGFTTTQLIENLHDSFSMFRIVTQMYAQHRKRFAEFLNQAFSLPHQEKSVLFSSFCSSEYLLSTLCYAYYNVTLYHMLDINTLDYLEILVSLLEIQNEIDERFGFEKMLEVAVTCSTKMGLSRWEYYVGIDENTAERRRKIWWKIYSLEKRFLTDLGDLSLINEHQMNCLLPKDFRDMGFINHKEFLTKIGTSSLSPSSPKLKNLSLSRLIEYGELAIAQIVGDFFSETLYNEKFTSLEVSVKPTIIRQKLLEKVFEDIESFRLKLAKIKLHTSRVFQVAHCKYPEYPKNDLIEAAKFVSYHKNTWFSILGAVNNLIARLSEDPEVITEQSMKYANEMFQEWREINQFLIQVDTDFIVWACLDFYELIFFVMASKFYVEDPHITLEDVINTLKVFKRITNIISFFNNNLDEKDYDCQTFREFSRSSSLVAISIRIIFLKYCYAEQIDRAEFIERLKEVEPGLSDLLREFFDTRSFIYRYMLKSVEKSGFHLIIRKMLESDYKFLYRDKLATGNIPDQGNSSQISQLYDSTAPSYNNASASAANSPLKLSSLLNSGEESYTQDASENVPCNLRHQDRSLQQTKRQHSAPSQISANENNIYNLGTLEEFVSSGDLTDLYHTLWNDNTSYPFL
TEST PROTOCOL: PBM E-score (8-mer binding enrichment) (E-score (-0.5 to 0.5)); higher = stronger / more preferred TF binding
CONDITION SUMMARY: protein concentration: 200 nM; construct: GST-full length
In all, about 33,000 sequences were measured (“E-score (-0.5 to 0.5)”: median about -0.035, highest 2% from about 0.35 on). Many of the other results were omitted from the sample, so the highest values are more common in it than they were.
Category key, based on recorded PBM E-score: low bin: < -0.07; mid bin: ≥ -0.07 and < 0.2; high bin: ≥ 0.2

SEQ: CGCCTTGC
DISCRETE LABEL: mid bin
//
SEQ: TACGGGCA
DISCRETE LABEL: mid bin
//
SEQ: CAAATGGC
DISCRETE LABEL: low bin
//
SEQ: AGATCCCT
DISCRETE LABEL: low bin
//
SEQ: ACGCGGCG
DISCRETE LABEL: high bin
//
SEQ: AGGCCTTA
DISCRETE LABEL: low bin
//
SEQ: GATACGGC
DISCRETE LABEL: mid bin
//
SEQ: TCGGTAGA
DISCRETE LABEL: mid bin
//
SEQ: ATCACGGA
DISCRETE LABEL: high bin
//
SEQ: ATGACGGA
DISCRETE LABEL: high bin
//
SEQ: GCGCGGCC
DISCRETE LABEL: high bin

* * *

TEST SYSTEM: Pdr3 (UniProt P33200)
Sequence: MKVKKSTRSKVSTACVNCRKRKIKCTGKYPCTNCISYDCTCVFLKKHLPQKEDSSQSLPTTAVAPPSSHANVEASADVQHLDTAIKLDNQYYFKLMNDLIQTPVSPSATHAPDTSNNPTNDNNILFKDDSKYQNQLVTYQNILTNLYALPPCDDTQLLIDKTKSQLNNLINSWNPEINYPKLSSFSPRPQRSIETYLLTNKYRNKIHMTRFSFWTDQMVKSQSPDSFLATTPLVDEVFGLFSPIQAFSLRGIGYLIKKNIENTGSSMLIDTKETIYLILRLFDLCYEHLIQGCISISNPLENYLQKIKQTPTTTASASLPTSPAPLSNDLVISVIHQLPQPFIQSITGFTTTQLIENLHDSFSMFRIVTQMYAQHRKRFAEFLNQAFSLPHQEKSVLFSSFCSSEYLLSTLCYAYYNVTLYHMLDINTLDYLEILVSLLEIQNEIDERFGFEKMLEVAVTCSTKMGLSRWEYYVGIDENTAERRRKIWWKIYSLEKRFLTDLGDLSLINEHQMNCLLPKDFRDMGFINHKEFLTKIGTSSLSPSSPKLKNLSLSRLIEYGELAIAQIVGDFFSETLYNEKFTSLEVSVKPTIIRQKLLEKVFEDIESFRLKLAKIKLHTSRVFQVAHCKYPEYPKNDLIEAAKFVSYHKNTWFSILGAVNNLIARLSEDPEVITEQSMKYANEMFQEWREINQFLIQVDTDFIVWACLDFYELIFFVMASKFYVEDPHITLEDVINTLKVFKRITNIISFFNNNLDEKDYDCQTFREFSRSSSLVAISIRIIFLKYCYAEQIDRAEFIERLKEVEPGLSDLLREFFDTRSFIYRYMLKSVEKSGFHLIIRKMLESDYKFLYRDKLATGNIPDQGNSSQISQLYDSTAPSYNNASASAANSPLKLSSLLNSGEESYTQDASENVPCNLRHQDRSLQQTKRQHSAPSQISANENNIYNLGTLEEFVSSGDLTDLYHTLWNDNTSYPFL
TEST PROTOCOL: PBM E-score (8-mer binding enrichment) (E-score (-0.5 to 0.5)); higher = stronger / more preferred TF binding
CONDITION SUMMARY: protein concentration: 200 nM; construct: GST-full length
Whole data set: some 33,000 sequences, median “E-score (-0.5 to 0.5)” near -0.035, cut for the highest 2% near 0.35. This is one part of a sample in which the highest values are shown more often than they occur.

SEQ: CTCCGTAC
PBM E-score: 0.162
--
SEQ: ACTACGGG
PBM E-score: 0.118
--
SEQ: GTCCGGAC
PBM E-score: 0.481
--
SEQ: ATCCGGCC
PBM E-score: 0.403
--
SEQ: ATTACGGC
PBM E-score: 0.0318
--
SEQ: ACACTAGT
PBM E-score: -0.167
--
SEQ: CAACCCGG
PBM E-score: 0.293
--
SEQ: ATTACGGA
PBM E-score: 0.361
